Numbers sourced from PubChem BioAssay (NCI).

Can you tell me growth for the items I'm about to list?
Tested on: IGROV1 ovarian
Assay: NCI-60 one-dose screen, 48 h (100 = growth as untreated, 0 = no growth, -100 = all killed)
Conditions: 10 µM unless noted
The panel holds about 83,000 compounds, 20% with a hit somewhere; the sample as a whole holds those more often.
Report the value in % with no unit label.

[in] Returns the measured growth for the input compound. Input: "CC(=O)O[C@H]1CC[C@H]2[C@@H]3CC=C4c5nc(-c6ccccc6)sc5CC[C@]4(C)[C@H]3CC[C@]12C"
[out] 97.2

[in] Returns the measured growth for the input compound. Input: "COc1cc(C=Nc2cccc(Br)c2)ccc1N(CCCl)CCCl"
[out] 96.3

[in] Returns the measured growth for the input compound. Input: "C[C@]12C[C@@H](CO)[C@H](O)C[C@@H]1CC[C@@H]1[C@@H]2CC[C@]2(C)[C@@H](O)CC[C@@H]12"
[out] 105

[in] Returns the measured growth for the input compound. Input: "COc1ccc(/C=C\c2cc(OC)c(OC)c(OC)c2)cc1NS(=O)(=O)c1ccc(Cl)cc1"
[out] 61.9

[in] Returns the measured growth for the input compound. Input: CCCCCCCCC(CO)NCCc1ccccc1 (stereo not drawn)
[out] 105

[in] Returns the measured growth for the input compound. Input: "CC(=O)OCC1O[C@@H]([S-])C(OC(C)=O)[C@H](OC(C)=O)[C@@H]1OC(C)=O.[Au+].c1ccc(CN2[CH-]N(Cc3ccccc3)C(c3ccccc3)=C2c2ccccc2)cc1"
[out] 14.3

[in] Returns the measured growth for the input compound. Input: "CC[C@H](C)[C@H](NC(=O)NC(C)(C)C)C(=O)N(C)[C@H](C[C@@H](OC(C)=O)c1nc(C(=O)N[C@@H](Cc2ccccc2)C[C@H](C)C(=O)OC)cs1)C(C)C"
[out] 24.5

[in] Returns the measured growth for the input compound. Input: "COc1ccc(/C=C\c2cc(OC)c(OC)c(OC)c2)c(NS(=O)(=O)c2ccc(C)cc2)c1O"
[out] 32.2

----------
Test system: SK-MEL-28 melanoma
Test: NCI-60 one-dose screen, 48 h (100 = growth as untreated, 0 = no growth, -100 = all killed)
Details: 10 µM unless noted
Compounds without any hit were thinned out: in the full panel of roughly 83,000, 20% have a hit.
PARAMETER: growth (%)
Report the value in % with no unit label.

[in] Returns the measured growth for the input compound. Input: CC12CCC3C(CCC4Cc5[nH]c6ccccc6c5CC43C)C1CCC2O (stereo not drawn)
[out] 54.8

[in] Returns the measured growth for the input compound. Input: CC1CN1CCCCN1CC1C (stereo not drawn)
[out] 100

[in] Returns the measured growth for the input compound. Input: C[C@@H]1O[C@@H](O[C@H]2C[C@@H](O)[C@]3(CO)C4C(CC[C@]3(O)C2)[C@@]2(O)CC[C@H](C3=CC(=O)OC3)[C@@]2(C)C[C@H]4O)[C@H](O)[C@H](O)[C@H]1O (stereo partly drawn)
[out] -87.6

[in] Returns the measured growth for the input compound. Input: "COC(=O)CCc1c[nH]c2ccc(N(CCCl)CCCl)cc12"
[out] 91.1

[in] Returns the measured growth for the input compound. Input: "Cc1c(NS(=O)(=O)c2ccccc2)ccc([N+](=O)[O-])c1Cl"
[out] 70.5

[in] Returns the measured growth for the input compound. Input: "COc1cccc(/C=C/[N+](=O)[O-])c1"
[out] 50.2

[in] Returns the measured growth for the input compound. Input: "C[C@@]12CC=C3c4nc(Nc5cccc(O)c5)sc4CC[C@]3(C)[C@H]1CC[C@]1(C)C(=O)CC[C@@H]21"
[out] 41.2

[in] Returns the measured growth for the input compound. Input: "C/C(=C\c1ccn(-c2ccccc2N)n1)[C@@H]1C[C@@H]2O[C@]2(C)CCC[C@H](C)[C@H](O)[C@@H](C)C(=O)C(C)(C)[C@@H](O)CC(=O)O1"
[out] 58.8

[in] Returns the measured growth for the input compound. Input: "O=C(N/N=C\c1ccc(N(CCCl)CCCl)cc1Cl)c1cccnc1"
[out] 98.5

[in] Returns the measured growth for the input compound. Input: "COc1ccc2nc(NC(=O)COc3cc(/C=C\c4cc(OC)c(OC)c(OC)c4)ccc3OC)sc2c1"
[out] 43.5

[in] Returns the measured growth for the input compound. Input: "O=C1NC(=O)C(=Cc2ccc(OCCCCC3CCCCC3)c(Cl)c2)C(=O)N1"
[out] 111

[in] Returns the measured growth for the input compound. Input: C1CCC([PH+](C2CCCCC2)C2CCCCC2[PH+](C2CCCCC2)C2CCCCC2)CC1.[Au].[CH-]1CCCCC1CC1CCCC[N-]1 (stereo not drawn)
[out] -70.5

[in] Returns the measured growth for the input compound. Input: "CC(=O)O[C@H]1CC[C@@]2(C)C(=CC[C@H]3[C@@H]4C[C@@H](N5CC5)[C@H](C(C)=O)[C@@]4(C)CC[C@@H]32)C1"
[out] 102

----------
Tested on: SK-MEL-28 melanoma
Test: NCI-60 one-dose screen, 48 h (100 = growth as untreated, 0 = no growth, -100 = all killed)
Details: 10 µM unless noted
Compounds without any hit were thinned out: in the full panel of roughly 83,000, 20% have a hit.
PARAMETER: growth (%)
Report the value in % with no unit label.

[in] Returns the measured growth for the input molecule. Input: CC(CO)NC1CCCCC1 (configuration not stated)
[out] 114

[in] Returns the measured growth for the input molecule. Input: "CC1(C)[C@H](O)[C@H](F)C[C@@]2(C)Oc3ccc(C(=O)Nc4ccc5c(c4)NC(=O)C54CCN(CCCCC#N)CC4)cc3C[C@H]12"
[out] 4.12

[in] Returns the measured growth for the input molecule. Input: "COc1ccc(/C=C\c2cc(OC)c(OC)c(OC)c2)c(NS(=O)(=O)c2ccc(C)cc2)c1O"
[out] 61.7

[in] Returns the measured growth for the input molecule. Input: "C=C(C)[C@@]12OC3(/C=C/C=C/CCCCC)O[C@@H]1[C@@H]1[C@@H]4O[C@]4(CO)[C@@H](O)[C@]4(O)C(=O)C(C)=C[C@H]4[C@@]1(O3)[C@H](C)[C@H]2OC(=O)c1ccccc1"
[out] 81.5

[in] Returns the measured growth for the input molecule. Input: "Nc1ccc2c(c1)oc1ccccc12"
[out] 104

[in] Returns the measured growth for the input molecule. Input: "COC(=O)[C@@H](C)C[C@H](Cc1ccccc1)NC(=O)c1csc([C@@H](C[C@H](C(C)C)N(C)C(=O)[C@@H](NC(=O)[C@H]2CCCCN2C)c2ccc(F)cc2)OC(C)=O)n1"
[out] 49.6

[in] Returns the measured growth for the input molecule. Input: CC(C)(C)C(=O)OCOP(=O)(NCc1ccccc1)C1CCCN(O)C1=O (configuration not stated)
[out] 17

----------
Can you tell me growth for the items I'm about to list?
System: MOLT-4 leukemia
Assay: NCI-60 one-dose screen, 48 h (100 = growth as untreated, 0 = no growth, -100 = all killed)
Conditions: 10 µM unless noted
The panel holds about 83,000 compounds, 20% with a hit somewhere; the sample as a whole holds those more often.
Report the value in % with no unit label.

[in] Returns the measured growth for the input compound. Input: "Cc1cc(C)cc(Nc2nc3c(s2)CC[C@@]2(C)C3=CC[C@@H]3[C@@H]2CC[C@]2(C)C(=O)CC[C@@H]32)c1"
[out] 10.3

[in] Returns the measured growth for the input compound. Input: "O=C1NC(=O)C(=Cc2ccc(OCCCCC3CCCCC3)c(Cl)c2)C(=O)N1"
[out] 96.5

[in] Returns the measured growth for the input compound. Input: "CCOP(=O)(NC[C@H]1O[C@](O)(CO)[C@@H](O)[C@@H]1O)OCC"
[out] 95.9

[in] Returns the measured growth for the input compound. Input: "Cc1c(C)c([N+](=O)[O-])c(C)c(C)c1[N+](=O)[O-]"
[out] 100

[in] Returns the measured growth for the input compound. Input: "CCc1ccccc1[C@@H]1C[C@]2(C)CCO[C@@H]2OO1"
[out] 105

[in] Returns the measured growth for the input compound. Input: "COC(=O)[C@@H](C)C[C@H](Cc1ccccc1)NC(=O)c1csc([C@@H](C[C@H](C(C)C)N(C)C(=O)[C@@H](NC(=O)[C@H]2CCCCN2C)C(C)C)OC(C)=O)n1"
[out] 4.52

[in] Returns the measured growth for the input compound. Input: "O=[N+]([O-])c1cc([N+](=O)[O-])c(Cl)cc1Cl"
[out] -21

[in] Returns the measured growth for the input compound. Input: "CCC1(C(C)C)C(=O)NC(=S)NC1=O"
[out] 105

[in] Returns the measured growth for the input compound. Input: CN1C(=O)C23CC4(C56CC78SSC(CO)(C(=O)N7C5Nc5ccccc56)N(C)C8=O)c5ccccc5NC4N2C(=O)C1(CO)SS3 (stereo not given)
[out] -62.2

[in] Returns the measured growth for the input compound. Input: O=C(CC1(O)C(=O)N(Cc2ccccc2)c2ccc(Br)cc21)c1ccc(C(=O)NCC2CCC3(CC2)OOC2(CCCCC2)OO3)cc1 (stereo not given)
[out] -37.3
